Measured values drawn from ChEMBL document CHEMBL5036334 for this set.

- target_or_system: Estrogen receptor (Homo sapiens)
- Sequence (P03372 whole entry): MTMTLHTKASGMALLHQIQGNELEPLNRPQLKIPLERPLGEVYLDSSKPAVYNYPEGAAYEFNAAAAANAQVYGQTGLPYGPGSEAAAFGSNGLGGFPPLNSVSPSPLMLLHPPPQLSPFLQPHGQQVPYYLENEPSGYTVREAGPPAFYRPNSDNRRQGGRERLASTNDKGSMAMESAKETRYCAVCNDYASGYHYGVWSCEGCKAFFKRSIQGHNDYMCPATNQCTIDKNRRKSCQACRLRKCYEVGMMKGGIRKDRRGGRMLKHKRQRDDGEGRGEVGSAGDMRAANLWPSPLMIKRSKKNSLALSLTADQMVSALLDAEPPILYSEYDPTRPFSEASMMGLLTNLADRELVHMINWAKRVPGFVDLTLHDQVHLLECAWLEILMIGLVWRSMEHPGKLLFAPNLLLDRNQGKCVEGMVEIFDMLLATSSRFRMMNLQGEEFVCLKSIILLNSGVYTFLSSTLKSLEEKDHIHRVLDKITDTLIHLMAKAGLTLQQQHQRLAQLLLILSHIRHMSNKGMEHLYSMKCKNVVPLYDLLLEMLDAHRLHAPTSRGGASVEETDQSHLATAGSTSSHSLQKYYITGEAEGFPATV
pIC50: −log10 of the molar value.
Label scheme for pIC50: lower than 6 is Criterion not met, 6 and above is Criterion met.

{"smiles_text": "CC(Cn1ccnc1)=C(c1ccc(O)cc1)c1ccc(O)cc1", "group_label": "Criterion not met"}
{"smiles_text": "CCC(Cn1ccnc1)=C(c1ccc(O)cc1)c1ccc(O)cc1", "group_label": "Criterion not met"}
{"smiles_text": "CC(CCc1c[nH]cn1)=C(c1ccc(O)cc1)c1ccc(O)cc1", "group_label": "Criterion not met"}
{"smiles_text": "CCC(CCc1c[nH]cn1)=C(c1ccc(O)cc1)c1ccc(O)cc1", "group_label": "Criterion met"}
{"smiles_text": "CC(=C(c1ccc(O)cc1)c1ccc(O)cc1)c1c[nH]cn1", "group_label": "Criterion met"}
{"smiles_text": "CC(Cc1cccnc1)=C(c1ccc(O)cc1)c1ccc(O)cc1", "group_label": "Criterion not met"}
